- SYSTEM UNDER TEST: P2X7 receptor (Homo sapiens, UniProt Q99572)
- Construct: 200 μl of a suspension of THP-1 cells; endogenous in cells
- Sequence (Q99572 1-595): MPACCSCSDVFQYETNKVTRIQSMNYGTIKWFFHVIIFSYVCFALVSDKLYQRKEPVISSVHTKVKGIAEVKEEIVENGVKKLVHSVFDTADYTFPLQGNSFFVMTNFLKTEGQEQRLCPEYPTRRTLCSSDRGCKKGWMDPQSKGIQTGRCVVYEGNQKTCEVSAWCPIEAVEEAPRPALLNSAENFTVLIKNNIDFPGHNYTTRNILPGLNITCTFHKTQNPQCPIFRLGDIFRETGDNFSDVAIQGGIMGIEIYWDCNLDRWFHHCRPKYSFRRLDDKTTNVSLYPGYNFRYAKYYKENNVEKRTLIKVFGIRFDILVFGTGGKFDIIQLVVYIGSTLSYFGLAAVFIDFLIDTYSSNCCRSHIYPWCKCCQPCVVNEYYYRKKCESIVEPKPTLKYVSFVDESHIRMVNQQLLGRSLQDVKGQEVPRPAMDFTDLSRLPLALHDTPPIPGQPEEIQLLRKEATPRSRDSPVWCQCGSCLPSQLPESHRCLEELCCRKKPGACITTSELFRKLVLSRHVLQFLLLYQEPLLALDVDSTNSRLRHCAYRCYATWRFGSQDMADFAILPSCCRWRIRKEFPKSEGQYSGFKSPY
- EXPERIMENTAL PROTOCOL: P2X7 receptor antagonist test: bbATP-induced ethidium bromide fluorescence in THP-1 cells
- EXPERIMENTAL CONDITIONS: bbATP agonist, 37° C. for one hour, negative logarithm of concentration reducing bbATP agonist activity by 50%
pIC50: −log10 of the molar value. Counter-ions that a name gives are not always drawn.
READOUT KIND: pIC50

Here are 4 compounds together with their reported answers.
O=C(NCC12CC3CC(CC(C3)C1)C2)c1c(Cl)ccc2nc(CN3CCNCC3)ccc12 [Example 170, Hydrochloride]; 7.58
O=C(CC12CC3CC(CC(C3)C1)C2)Nc1cccc2nc(NCCCO)ccc12; 8.05
O=C(CC12CC3CC(CC(C3)C1)C2)Nc1c(Cl)ccc2nc(CN3CCN(CCO)CC3)ccc12; 7.73
O=C(NCC12CC3CC(CC(C3)C1)C2)c1cc(CCCNCCCO)nc2ccccc12; 7.60

A. Cc1ccc2nc(CCNCCCO)ccc2c1NC(=O)CC12CC3CC(CC(C3)C1)C2 [Example 205, Dihydrochloride]
B. O=C(CC12CC3CC(CC(C3)C1)C2)Nc1cccc2cnccc12
C. CNCCCN(C)c1ccc2c(C(=O)NCC34CC5CC(CC(C5)C3)C4)c(Cl)ccc2n1
D. CNCCCc1ccc2c(C(=O)NCC34CC5CC(CC(C5)C3)C4)c(Cl)ccc2n1 [Example 167, Sesquihydrochloride]
Query: Rank items: key pIC50, increasing. Form entry: ranked labels (order as requested).
Reply: B, C, A, D
